Hello, the source for this data is PubChem BioAssay (NCI), in case you need it.

Tested on: MALME-3M melanoma
assay_remarks: NCI tumour cell line growth inhibition, 48 h
recorded_endpoint: TGI

Recorded TGI, per entry:
// TGI lookup, molecule = Nc1ccccc1NC(=O)c1ccc(CNc2nccc(-c3cccnc3)n2)cc1 , result: > 21.7 µM

// TGI lookup, molecule = O=c1[nH]nc(Cc2ccc(Cl)cc2)n1/N=C/c1ccco1 , result: > 100 µM

// TGI lookup, molecule = Cc1c(O)c2ccccc2oc1=O , result: > 100 µM

// TGI lookup, molecule = CC(C)N1CC2CN(Cc3ccccc3)CC(C1)C2=O , result: > 100 µM

// TGI lookup, molecule = Cn1c2ccccc2n2c3ncccc3c(=NCCCC(=O)O)c(C#N)c12 , result: > 100 µM

// TGI lookup, molecule = COC(=O)/C(=N\NC(N)=O)C(C(=O)C(=O)Nc1ccccc1OC)c1nc2ccc([N+](=O)[O-])cc2[nH]c1=O (stereo not given) , result: > 100 µM

// TGI lookup, molecule = CCCCNc1nc2ccccc2c2c1ncn2CC(C)C , result: > 100 µM

// TGI lookup, molecule = Cn1cc(C2=C(c3ccccc3[N+](=O)[O-])C(=O)NC2=O)c2ccccc21 , result: > 20.8 µM

// TGI lookup, molecule = COc1ccc2c(c1)[n+]([O-])c(-c1ccc([N+](=O)[O-])cc1)c(N)[n+]2[O-] , result: > 100 µM

Turning to the following molecule.
// TGI lookup, molecule = CC(=O)Nc1ccc(/C=c2\sc3nnc(CCC(=O)Nc4ccccc4Cl)n3c2=O)cc1 , result: > 100 µM
